Test: Pharmacokinetic study in rats after single oral dose (UPLC-MS/MS, non-compartmental analysis)
Type: in vivo
Details: male, Sprague-Dawley, rat, plasma, single oral dose of 10 mg/kg, n = 6, mean ± SD
Description: Six male Sprague-Dawley (SD) Rats (weighing 250 ± 20 g) were obtained from the Laboratory Animal Center of The First Affiliated Hospital of Wenzhou Medical University (Zhejiang, China). They were housed in an environmentally controlled rearing chamber and given food and water that met the standard for 1 week. The animal experiment was approved by the Ethics Committee for the Protection and Use of Laboratory Animals of The First Affiliated Hospital of Wenzhou Medical University (Zhejiang, China). […]
result.type: AUC(0-t) (ng·h/mL)

- C=CC(=O)N1CCC(c2ccc(C(N)=O)c(-c3ccc(Oc4ccccc4)cc3)n2)CC1 [Orelabrutinib]: 3590

###

Assay: Pharmacokinetic study in rats after single oral dose (UPLC-MS/MS, non-compartmental analysis)
Type: in vivo
Conditions: male, Sprague-Dawley, rat, plasma, single oral dose of 10 mg/kg, n = 6, mean ± SD
result.type: AUC(0-inf) (ng·h/mL)

- C=CC(=O)N1CCC(c2ccc(C(N)=O)c(-c3ccc(Oc4ccccc4)cc3)n2)CC1: 3600

###

Test: Pharmacokinetic study in rats after single oral dose (UPLC-MS/MS, non-compartmental analysis)
Type: in vivo
Conditions: male, Sprague-Dawley, rat, plasma, single oral dose of 10 mg/kg, n = 6, mean ± SD
result.type: half-life (h)

- C=CC(=O)N1CCC(c2ccc(C(N)=O)c(-c3ccc(Oc4ccccc4)cc3)n2)CC1: 8.25

Reference source for all entries: paper PMC9486086
